assay: Components of the Cytosolic LPS Sensing Pathway: Gene Identification via Genome-wide siRNA Screen; conditions: RAW264.7 macrophages, IL-1a HTRF, actives lie on both sides, screened at 100 nM (by protocol), cells primed 5 h with Pam3CSK4 first
About 3,700 (7%) of roughly 53,000 sequences were called active.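 The calls were made as follows: active = gene knockdowns whose robust z-score for IL-1 alpha signal is at least 2 or at most -2, so actives lie on both sides; inactive = the rest.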 The entries come from a sample that favours actives as a whole.
Classes to choose from: YES = active, NO = inactive

Give the logged outcome of this assay for the following sequence: GGUGACAACACUUGUCAACTT against Ctnna2
NO

Called result for CGGAGUUGAGCCAGAAAAATT against Fbxo31
NO

Outcome logged for GCUGCACCAUCAAUUCCCATT against Vpreb3 in this assay:
NO

Returns: the outcome recorded for GGCAGUUUCUUCUUCCAAATT against H1f1 in this assay.
YES

// return assay outcome for GGAACUUCAUAAACACUUGTT against Oas3
NO

Dear all, I need the recorded test outcome for CGAGCUAUCCACUUAAUCATT against Irak3 , thank you.
NO

For GCCAUAUCAACUCAGAUCATT against Ssh2 , which call appears in the assay record?
YES

Identify the outcome logged in this assay for the sequence shown: GGUAACUUUGAACUGAUCCTT against 1700030J22Rik
NO

Identify the outcome logged in this assay for the sequence shown: GGAGCAAAAUUCACAGUCUTT against Bcl7a
NO

Recorded call for GGAACACCUACAGUAUAAATT against Cdc123 ?
NO

Hey, what did the test say about CCAUCUGGACUUCAGUUUUTT against Rap1gap2 ?
NO

State the result this test recorded for CCAACAACGGCAUUCACUATT against Ebf3 .
NO

Where do these numbers come from? They come from PubChem BioAssay AID1508600.
